Catalogue of TGI values
Test system: A549 NSCLC
Experiment: NCI tumour cell line growth inhibition, 48 h
quantity-measured: TGI

1) COc1cc(-c2nc3sccn3c2-c2ccnc(NCCNS(=O)(=O)c3ccc(Cl)cc3)n2)ccc1F ... > 100 µM
2) CN(CCCCCl)P(=O)(OCc1ccc([N+](=O)[O-])o1)OCC1OC(n2ccc(N)nc2=O)C(F)(F)C1O (stereo unspecified) ... > 59.5 µM
3) CC(C)(C)OC(=O)CC(NC(=O)OC(C)(C)C)C(=O)N[C@@H]1CCCC[C@H]1C(=O)OCc1ccccc1 (stereo partly specified) ... 93.4 µM
4) CCOC(=O)C1C(c2ccc(OC)cc2)c2c([nH]n(-c3ccccc3)c2=O)CC1(O)OCC (stereo unspecified) ... > 100 µM
5) O=c1cc(-c2ccc(O)cc2)n(C2CC2)c2ccccc12 ... 18.5 µM
6) CCN1C=C/C(=C\C=C/c2cc[n+](CC)c3ccccc23)c2ccccc21 ... 21.2 µM
7) CCC[CH2][Sn]([CH2]CCC)([O]C(=O)c1cc(F)ccc1F)[O][Sn]([CH2]CCC)([CH2]CCC)[O]C(=O)c1cc(F)ccc1F ... 3.68 µM
8) COP(=O)(Cc1ccc(/C=C/C#N)o1)OC ... > 100 µM
9) CCCCCCCC(=O)NCC(O)CNC(=O)CCCCCCC ... > 100 µM
10) CC(C)CCC[C@@H](C)[C@H]1CC[C@H]2[C@@H]3CC[C@H]4C[C@H](N)CC[C@]4(C)[C@H]3CC[C@]12C ... 48.1 µM
11) CCCN1CC=C(c2cc(C(=O)OCC)[nH]c2-c2cc(C)no2)C1=O ... > 100 µM
12) CCOC(=O)c1sc2ncn(Cc3cccc(Br)c3)c(=O)c2c1C ... > 100 µM
13) C1=Nc2ccc(cc2)N=Cc2ccc(cc2)OCc2cccc(n2)COc2ccc1cc2 ... > 100 µM
14) O=[N+]([O-])c1ccc2[nH]nc(OCc3ccccn3)c2c1 ... > 100 µM
15) COc1cc2c(c(O)c1OC)C(O)C1CCC(=O)N1C2c1cccc2ccccc12 (stereo unspecified) ... > 100 µM
16) Cn1c(N)c(C(N)=O)[nH]c1=S ... > 100 µM
17) CC1OC(n2ccc(=O)[nH]c2=O)C=C(OC(=O)c2ccccc2)C1=O (stereo unspecified) ... > 100 µM
18) CCCCOc1ccc(NC(=O)n2nc(N)c3ccccc32)cc1 ... > 87.9 µM
19) Cc1ccc(Cc2n[nH]c(=O)n2/N=C\CC/C=N\n2c(Cc3ccc(C)cc3)n[nH]c2=O)cc1 ... > 100 µM
20) COc1ccc2c(c1O)C13CCN(C)C(C2)C1CCC1(C3)OCCO1 (stereo unspecified) ... > 100 µM
21) CC(C)(C)OC(=O)NCC(=O)NC1c2ccsc2/C(=N/O)[C@H]1O (stereo partly specified) ... > 100 µM

###

Tested on: 786-0 renal
Experiment: NCI tumour cell line growth inhibition, 48 h; in the data active = GI50 below about 0.43 µM; inactive = the rest
Outcomes: Yes for active, No for inactive

1) CCOc1ccc(-c2cnnn2-c2nonc2-n2cccc2)cc1 ... Yes
2) N=C(N)c1ccc(OCCOCCOc2ccc(C(=N)N)cc2)cc1 ... No
3) CCCCOc1ccc(NC(=O)n2nc(N)c3ccccc32)cc1 ... No
4) [Cl][Sn]([Cl])([c]1ccccc1)[c]1ccccc1 ... No
5) Nc1ncnc2c1ncn2Cc1ccc(C23CC4CC(CC(C4)C2)C3)c(OCc2cc(F)c(F)cc2F)c1 ... No
6) CC(C)Nc1ccc(Nc2ccccc2)cc1 ... No
7) Cc1cc(NCCCNc2ccnc3cc(Cl)ccc23)nc(N2CCN(C)CC2)n1 ... No
8) O=S(=O)(Cc1ccc(Cl)cc1Cl)c1ccc(Cl)cc1 ... No
9) O=c1c2c3c(sc2n2c(-c4cc(-c5ccccc5)no4)nnc2n1Cc1ccccc1)CCCC3 ... No
10) N/C(=C\C(=O)n1nc(-c2ccccc2)cc1N)c1ccccc1 ... No
11) Fc1ccc(-c2nn3c(-c4ccc(F)c(Cl)c4)nnc3s2)cc1 ... No
